Catalogue of Em (nm) readings, one per entry.
settings: PBS

Molecule: Cc1ccccc1C1=C2C=CC(=[N+](C)C)C=C2[Si](C)(C)c2cc(N(C)C)ccc21 [Compound 001, reference compound]
Em (nm): 663 nm

Query: Assign Em (nm) to the following record: CN(C)c1ccc2c(c1)[Si@](C)(CCCN=[N+]=[N-])c1cc(N(C)C)ccc1[C@@]21OC(=O)c2ccccc21 [Compound 054]
Reply: 665 nm

Query: Assign Em (nm) to the following record: C=C[Si]1(C=C)C2=CC(=[N+]3CCC3)C=CC2=C(c2ccccc2C)c2ccc(N3CCC3)cc21 [Compound 026]
Reply: 673 nm

Query: Assign Em (nm) to the following record: C=C[Si]1(C=C)c2cc3c(cc2C(c2ccccc2C)=c2cc4c(cc21)=[N+](C)CC4)CCN3C [Compound 021]
Reply: 728 nm

Query: Assign Em (nm) to the following record: Cc1ccccc1C1=C2C=CC(=[N+]3CCC3)C=C2[Si](C)(CCCCl)c2cc(N3CCC3)ccc21 (stereo not shown) [Compound 027]
Reply: 668 nm

Query: Assign Em (nm) to the following record: CN(C)c1ccc2c(c1)[Si@](C)(CCCN=[N+]=[N-])c1cc(N(C)C)ccc1[C@]21OC(=O)c2ccccc21 [Compound 053]
Reply: 666 nm

Query: Assign Em (nm) to the following record: Cc1ccccc1C1=C2C=CC(=[N+](C)C)C=C2[Si](C)([C@H]2CC3C=CC2C3)c2cc(N(C)C)ccc21 (stereo partly shown) [Compound 013]
Reply: 666 nm

* * *

settings: PBS
Quantity measured: Ex (nm)
The response must be a number in nm with no trailing unit.

Compound: Cc1ccccc1C1=C2C=CC(=[N+](C)C)C=C2[Si](C)(CCCCl)c2cc(N(C)C)ccc21 (centres unmarked)
Ex (nm): 650

Query: Assign Ex (nm) to the following record: C[Si@]1(CCCCl)c2cc(N3CCC3)ccc2[C@]2(OC(=O)c3ccccc32)c2ccc(N3CCC3)cc21
Reply: 648

Query: Assign Ex (nm) to the following record: C=C[Si]1(C=C)C2=CC(=[N+](C)C)C=CC2=C(c2ccccc2C)c2ccc(N(C)C)cc21
Reply: 657

Query: Assign Ex (nm) to the following record: Cc1ccccc1C1=c2cc3c(cc2[Si](c2ccccc2)(c2ccccc2)c2cc4c(cc21)CCN4C)=[N+](C)CC3
Reply: 710

Query: Assign Ex (nm) to the following record: Cc1ccccc1C1=C2C=CC(=[N+]3CCC3)C=C2[Si](c2ccccc2)(c2ccccc2)c2cc(N3CCC3)ccc21
Reply: 663

* * *

Catalogue of ϕ (quantum yield) readings, one per entry.
conditions: PBS, pH 7.4
Keep it simple and answer with nothing but the number.

Molecule: Cc1ccccc1C1=c2cc3c(cc2[Si](C)(C)c2cc4c(cc21)CCCN4C)=[N+](C)CCC3 [Compound 016, reference compound]
ϕ (quantum yield): 0.31
--
Molecule: Cc1ccccc1C1=C2C=CC(=[N+]3CCC3)C=C2[Si](c2ccccc2)(c2ccccc2)c2cc(N3CCC3)ccc21
ϕ (quantum yield): 0.41
--
Molecule: CN(C)c1ccc2c(c1)[Si@](C)(CCCCl)c1cc(N(C)C)ccc1[C@@]21OC(=O)c2ccccc21
ϕ (quantum yield): 0.40
--
Molecule: CN(C)c1ccc2c(c1)[Si@](C)(CCCI)c1cc(N(C)C)ccc1[C@]21OC(=O)c2ccccc21
ϕ (quantum yield): 0.43

Query: Assign ϕ (quantum yield) to the following record: CCOC(=O)CSCCC[Si@]1(C)c2cc(N(C)C)ccc2[C@@]2(OC(=O)c3ccccc32)c2ccc(N(C)C)cc21
Reply: 0.45

Query: Assign ϕ (quantum yield) to the following record: CN(C)c1ccc2c(c1)[Si@](C)(CCCSCC(=O)O)c1cc(N(C)C)ccc1[C@@]21OC(=O)c2ccccc21
Reply: 0.45

Where do the numbers come from? From patent US20250003877A1.
